Form field: pEC50 (one value per entry).
# System under test: T1, purified human glycophorin A protein (Sigma, cat # G5017) (human, UniProt P02724 20-150)
# T1 construct: mature; also called Sigma hGPA; Sigma GPA
# T1 sequence (looked up): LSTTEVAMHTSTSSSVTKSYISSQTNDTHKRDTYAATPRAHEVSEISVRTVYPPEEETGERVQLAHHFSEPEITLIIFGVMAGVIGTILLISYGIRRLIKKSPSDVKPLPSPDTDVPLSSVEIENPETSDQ
# Test: ELISA, hGPA
pEC50: −log10 of the molar value.

Binder | pEC50
7G4E9/A8 (antibody, V domains shown, as m8) VH: QVQLKESGPGLVAPSQSLSITCTVSGFSLTRFGISWVRQPPGKGLEWMGVIWGDGSTDYHSALISRLSITKDNSKSQVFFRLNSLQSDDSATYYCARSFGMDYWGQGTSVTVSS VL: NIMMTQSPSSLAVSAGEKVTMSCKSSQSILNSSNQKNYLAWYQQKPGQSPKLLIYWASTRESGVPDRFTGSGSGTDFTLTISSVQAEDLAVYYCHQYFSSRTFGGGTKLEIK | 10.15
1H5B4/H12 (antibody, V domains shown, as m8) VH: QVQLQQSGAELARPGASVKMSCKASGYTFTSYSIHWIKQRPGQSLEWIGYINPNSDYANYNQKFKDKATLTTDKSSTTAYMQLSSLTTDDSAVYYCQTGTRDYWGQGTTLTVSS VL: DIVMTQSPSSLSVSAGEKVTMSCKSSQSLLNSGNQKNYLAWYQQKPGQPPKLLIYGASTRESGVPDRFTGSGSGTDFTLTISSVQAEDLAVYYCQNDHSYPYTFGGGTKLEIK | 9.39
12C6A6/A5 (antibody, V domains shown, as m8) VH: QVQLQQSGAELARPGASVKMSCKASGYTFTRYSMHWVKQRPGQGLEWIGYINPGTYSTNYNQKFKDRATLTADKSSSTAYMQLNSLTSEDSAVYYCQTGTRDYWGQGTTLTVSS VL: QIVLTQSPPIMSASPGEKVTITCSAASSVSYIYWFQQKPGTSPKLWIYSTSSLPSGVPTRFSGSGSGTSYSLTISRMEAEDAATYYCHQRSSYPFTFGSGTKLEIR | 9.58
